test system: NCI-H23; assay: NCI tumour cell line growth inhibition, 48 h
Activity calls are given as the source filed them. No stated cut-off is given here; in the data, active = GI50 up to about 1.1 µM and inactive = higher.
Please state which outcome applies, choosing from active, inactive

The following molecules have reported results that may help.
Problem: Which outcome was assigned to CC(C)(C)N(Cc1ccccc1)C(=O)/C=C\[S+]([O-])c1ccccc1 (configuration not stated) in this test?
Solution: inactive

Problem: Lab log entry: `CCNc1nnc(-c2nsc3ccccc23)s1` — outcome as called in the assay?
Solution: inactive

Problem: Give the logged outcome of this assay for the following molecule: O=C(O)C1CCCN1Cc1ccc2c(c1)OCO2 (configuration not stated)
Solution: inactive

Others:
Problem: Entry O=C1OC(O)c2cc3c(cc21)OCO3 (configuration not stated) : call = ?
Solution: inactive

Problem: For `Oc1ncnc2c1nnn2CCCn1nnc2c(O)ncnc21` , what call appears in the results of this test?
Solution: inactive

Problem: What did the test return for `N#Cc1c(-c2ccc(F)cc2)c(-c2ccc(F)cc2)nn(CCO)c1=O` ?
Solution: active

Problem: How did this test come out for `O=C(O/N=C1/CCC/C1=C\c1ccccc1)c1ccc(Cl)cc1` ?
Solution: inactive

Problem: Test call, this molecule: `Cc1cc(-c2ccccc2)nc(Nc2cc3ccccc3[nH]2)n1`
Solution: inactive

Problem: // param item: O=C1CCC2(c3ccc(F)cc3)Nc3ncccc3N12 (configuration not stated) ; yields the recorded call
Solution: inactive

Problem: How was CCOC(=O)C(C)N1C(=O)c2ccccc2S1(=O)=O (configuration not stated) classified in this test?
Solution: inactive

Problem: Write down the call the test reported for this molecule. Item: O=C1CC(c2ccccc2)n2c(nc3ccccc32)N1 (configuration not stated)
Solution: inactive

Problem: // param item: CC(C)(C)[Si](C)(C)OC1C(=O)C[C@H]2CCCC[C@@H]12 (some centres not stated) ; yields the recorded call
Solution: inactive
